# experimental target: human recombinant adrenergic α1D receptor (Homo sapiens, UniProt P25100)
# Construct: expressed in transfected cells; host or cells: HEK-293 cells
# Sequence (P25100 whole entry): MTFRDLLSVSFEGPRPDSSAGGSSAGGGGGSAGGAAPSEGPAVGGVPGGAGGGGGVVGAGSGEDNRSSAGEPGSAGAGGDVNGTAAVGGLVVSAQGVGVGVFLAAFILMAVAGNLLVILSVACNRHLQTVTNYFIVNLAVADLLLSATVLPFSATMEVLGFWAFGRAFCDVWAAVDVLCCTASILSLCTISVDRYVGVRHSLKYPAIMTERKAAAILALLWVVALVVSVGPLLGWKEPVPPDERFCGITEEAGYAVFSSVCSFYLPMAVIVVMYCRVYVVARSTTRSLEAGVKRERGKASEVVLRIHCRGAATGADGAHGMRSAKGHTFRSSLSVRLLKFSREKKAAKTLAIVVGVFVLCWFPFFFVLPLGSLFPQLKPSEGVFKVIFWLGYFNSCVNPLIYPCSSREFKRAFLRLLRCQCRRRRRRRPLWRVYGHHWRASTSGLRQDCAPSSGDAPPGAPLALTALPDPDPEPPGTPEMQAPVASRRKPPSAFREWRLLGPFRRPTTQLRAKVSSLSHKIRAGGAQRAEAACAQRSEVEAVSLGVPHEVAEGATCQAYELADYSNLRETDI
# assay name: Adrenergic alpha1D radioligand binding ([3H]Prozosin)
# particulars: compound at 1 μM; read-out: Adrenergic (1 μM) α1D, percent inhibition of specific binding
# Description: To evaluate in radioligand binding assays the activity of compounds of the invention, human recombinant adrenergic α1D receptor expressed in human embryonic kidney (HEK-293) cells (Kenny, B. A. et al. Br. J. Pharmacol. 115(6):981, 1995) in a 50 mM Tris-HCl buffer, pH 7.4, was used. Compounds of invention were incubated with 0.6 nM [^3H]Prozosin for 60 min. at 25° C. […] Receptor proteins were filtered and washed, the filters were then counted to determine [^3H]Prozosin specifically bound. […]
Binning of inhibition at 1 µM into classes: lo = under 30%, med = from 30% up to 90%, hi = 90% and over

INSERT INTO results (compound, class_name) VALUES
  ('Cc1ccc2c(c1)c1c(n2CCc2ccccn2)CCN(C)CC1 [Compound No. 9]', 'med'),
  ('Cc1ccc2c(c1)c1c(n2CCc2ccc(C(=O)O)nc2)CCN(C)CC1 [Compound No. 11]', 'lo'),
  ('Cc1ccc2c(c1)c1c(n2CC(=O)N2CCC(C)CC2)CCN(C)CC1 [Compound No. 225]', 'med'),
  ('CC(C)NC(=O)Cn1c2c(c3cc(Cl)ccc31)CCN(C)CC2 [Compound No. 31]', 'lo'),
  ('CN1CCc2c(n(CC(=O)Nc3ccccc3)c3ccc(Cl)cc23)CC1 [Compound No. 73]', 'lo'),
  ('CN1CCc2c(n(CCc3ccccc3F)c3ccc(Cl)cc23)CC1 [Compound No. 61]', 'lo'),
  ('C=C(Cn1c2c(c3cc(Cl)ccc31)CCN(C)CC2)c1ccc(F)cc1 [Compound No. 82]', 'hi'),
  ('C/C(=C\n1c2c(c3cc(Cl)ccc31)CCN(C)CC2)c1ccc(Cl)cc1 [Compound No. 36]', 'hi'),
  ('Cc1ccc2c(c1)c1c(n2CC(C)(O)c2ccc(Cl)cc2)CCN(C)CC1 (centres unmarked) [Compound No. 15]', 'med'),
  ('Cc1ccc2c(c1)c1c(n2CC(O)c2cccnc2)CCN(C)CC1 (centres unmarked) [Compound No. 19]', 'med'),
  ('COc1ccc(/C=C/n2c3c(c4cc(Cl)ccc42)CCN(C)CC3)cc1OC [Compound No. 226]', 'med'),
  ('Cc1ccc2c(c1)c1c(n2/C=C/c2ccccc2)CCN(C)CC1 [Compound No. 229]', 'hi'),
  ('Cc1ccc2c(c1)c1c(n2CC(=O)NC(C)C)CCN(C)CC1 [Compound No. 54]', 'lo'),
  ('CN1CCc2c(n(/C=C/c3ccc(F)cc3)c3ccc(Cl)cc23)CC1 [Compound No. 234]', 'hi'),
  ('COc1ccc(/C=C/n2c3c(c4cc(C)ccc42)CCN(C)CC3)cc1F [Compound No. 180]', 'hi'),
  ('CN1CCc2c(n(C#Cc3ccc(Cl)cc3)c3ccc(Cl)cc23)CC1 [Compound No. 282]', 'med'),
  ('Cc1ccc2c(c1)c1c(n2CC(=O)N2CCOCC2)CCN(C)CC1 [Compound No. 38]', 'med'),
  ('Cc1ccc2c(c1)c1c(n2CC(C)(O)c2ccc(F)cc2)CCN(C)CC1 (centres unmarked) [Compound No. 14]', 'med'),
  ('COc1ccc(/C=C/n2c3c(c4cc(Cl)ccc42)CCN(C)CC3)cc1F [Compound No. 158]', 'hi'),
  ('Cc1ccc2c(c1)c1c(n2CC(=O)Nc2ccccc2)CCN(C)CC1 [Compound No. 79]', 'lo'),
  ('Cc1ccc2c(c1)c1c(n2CC(=O)N(C)C2CCCCC2)CCN(C)CC1 [Compound No. 232]', 'lo'),
  ('Cc1ccc2c(c1)c1c(n2CC(=O)Nc2ccc(F)cc2)CCN(C)CC1 [Compound No. 44]', 'lo'),
  ('Cc1ccc2c(c1)c1c(n2CC(O)c2ccc(C)nc2)CCN(C)CC1 (centres unmarked) [Compound No. 23]', 'lo'),
  ('C/C(=C\n1c2c(c3cc(C)ccc31)CCN(C)CC2)c1ccc(Cl)cc1 [Compound No. 33]', 'hi'),
  ('CN1CCc2c(n(CC(=O)N3CCCCC3)c3ccc(Cl)cc23)CC1 [Compound No. 57]', 'lo'),
  ('CN1CCc2c(n(CC(O)c3ccc(F)cc3)c3ccc(Cl)cc23)CC1 (centres unmarked) [Compound No. 51]', 'med');

---

# experimental target: human recombinant serotonin (5-Hydroxytryptamine) 5-HT2A receptor (Homo sapiens, UniProt P28223)
# Construct: expressed in transfected cells; host or cells: CHO-K1 cells
# Sequence (P28223 whole entry): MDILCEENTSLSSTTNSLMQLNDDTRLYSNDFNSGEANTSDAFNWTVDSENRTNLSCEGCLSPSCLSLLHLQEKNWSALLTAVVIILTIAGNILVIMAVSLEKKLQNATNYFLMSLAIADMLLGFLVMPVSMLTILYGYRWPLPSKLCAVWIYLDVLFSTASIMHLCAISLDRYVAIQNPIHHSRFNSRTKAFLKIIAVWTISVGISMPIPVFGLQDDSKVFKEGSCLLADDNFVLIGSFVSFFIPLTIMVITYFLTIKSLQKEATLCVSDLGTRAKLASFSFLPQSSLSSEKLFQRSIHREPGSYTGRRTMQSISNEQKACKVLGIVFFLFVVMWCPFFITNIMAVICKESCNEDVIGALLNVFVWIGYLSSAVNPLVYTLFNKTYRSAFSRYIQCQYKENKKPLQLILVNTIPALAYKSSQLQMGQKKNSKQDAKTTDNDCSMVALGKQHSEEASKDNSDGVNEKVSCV
# assay name: Serotonin 5-HT2A radioligand binding ([3H]Ketanserin)
# particulars: compound at 1 μM; read-out: Serotonin (1 μM) 5-HT2A, percent inhibition of specific binding
inhibition at 1 µM values, listed per item
parameter: inhibition at 1 µM (%)

INSERT INTO measurements (compound, unit_tag, reported_measurement) VALUES
  ('Cc1ccc2c(c1)c1c(n2CC(O)c2ccncc2)CCN(C)CC1 (stereo not drawn)', '%', 93),
  ('CN1CCc2c(n(CCc3ccncc3)c3ccc(Cl)cc23)CC1', '%', 96),
  ('CN1CCc2c(n(CCc3cncc(Cl)c3)c3ccc(Cl)cc23)CC1', '%', 94),
  ('Cc1ccc2c(c1)c1c(n2CCc2ccc(C(=O)O)nc2)CCN(C)CC1', '%', 5),
  ('COc1ccc(C(O)Cn2c3c(c4cc(Cl)ccc42)CCN(C)CC3)cc1 (stereo not drawn)', '%', 99),
  ('COc1ccc(C#Cn2c3c(c4cc(Cl)ccc42)CCN(C)CC3)cc1F', '%', 90),
  ('C/C(=C\n1c2c(c3cc(Cl)ccc31)CCN(C)CC2)c1cccnc1', '%', 98),
  ('CN1CCc2c(n(CC(C)(O)c3ccc(Cl)cc3)c3ccc(Cl)cc23)CC1 (stereo not drawn)', '%', 100),
  ('CN1CCc2c(n(CC(O)c3ccccc3F)c3ccc(Cl)cc23)CC1 (stereo not drawn)', '%', 97);

---

# experimental target: human recombinant histamine H2 receptor (Homo sapiens)
# Construct: expressed in transfected cells; host or cells: CHO-K1 cells
# Sequence (P25021 whole entry): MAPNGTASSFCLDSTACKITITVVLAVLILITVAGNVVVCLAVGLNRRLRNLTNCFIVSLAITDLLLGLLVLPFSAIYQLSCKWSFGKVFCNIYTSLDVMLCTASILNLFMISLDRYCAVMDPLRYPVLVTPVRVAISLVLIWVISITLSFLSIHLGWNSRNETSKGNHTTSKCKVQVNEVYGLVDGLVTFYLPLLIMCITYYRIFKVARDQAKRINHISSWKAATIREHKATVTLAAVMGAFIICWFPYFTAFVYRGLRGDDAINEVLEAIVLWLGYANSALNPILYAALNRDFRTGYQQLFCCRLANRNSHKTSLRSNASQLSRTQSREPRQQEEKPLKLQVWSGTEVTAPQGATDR
# assay name: Histamine H2 radioligand binding ([125I]Aminopotentidine)
# particulars: compound at 1 μM; read-out: Histamine Binding (1 μM) H2, percent inhibition of specific binding
Binary call on inhibition at 1 µM: true (1) from 80% upward, false (0) beneath that.

INSERT INTO results (compound, class_name) VALUES
  ('CN1CCc2c(n(CCc3ccc(C(F)(F)F)nc3)c3ccc(Cl)cc23)CC1', 'false (0)'),
  ('CN1CCc2c(n(CC(O)c3ccc(F)c(F)c3)c3ccc(Cl)cc23)CC1 (centres unmarked)', 'true (1)'),
  ('Cc1ccc2c(c1)c1c(n2CC(C)(O)c2ccc(F)cc2)CCN(C)CC1 (centres unmarked)', 'true (1)'),
  ('Cc1ccc2c(c1)c1c(n2CCc2ccccc2F)CCN(C)CC1', 'true (1)'),
  ('C/C(=C\n1c2c(c3cc(Cl)ccc31)CCN(C)CC2)c1ccc(Cl)cc1Cl', 'true (1)'),
  ('C/C(=C/n1c2c(c3cc(C)ccc31)CCN(C)CC2)c1cccc(F)c1', 'true (1)');

---

# experimental target: human recombinant adrenergic α2A receptor (Homo sapiens)
# Construct: expressed in transfected cells; host or cells: insect Sf9 cells
# Sequence (P08913 whole entry): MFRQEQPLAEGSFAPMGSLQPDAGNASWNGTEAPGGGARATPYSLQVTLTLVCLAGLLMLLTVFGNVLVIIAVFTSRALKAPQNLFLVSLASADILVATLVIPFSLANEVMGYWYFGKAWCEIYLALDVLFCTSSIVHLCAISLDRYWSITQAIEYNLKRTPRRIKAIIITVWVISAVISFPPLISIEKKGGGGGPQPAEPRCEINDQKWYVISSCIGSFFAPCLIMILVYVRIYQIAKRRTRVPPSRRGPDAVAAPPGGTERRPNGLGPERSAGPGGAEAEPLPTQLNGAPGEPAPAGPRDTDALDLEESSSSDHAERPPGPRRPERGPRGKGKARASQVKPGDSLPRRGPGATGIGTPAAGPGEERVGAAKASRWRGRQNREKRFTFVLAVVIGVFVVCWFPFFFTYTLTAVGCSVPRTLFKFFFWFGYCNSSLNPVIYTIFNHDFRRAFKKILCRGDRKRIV
# assay name: Adrenergic alpha2A radioligand binding ([3H]MK-912)
# particulars: compound at 1 μM; read-out: Adrenergic (1 μM) α2A, percent inhibition of specific binding
inhibition at 1 µM values, listed per item
parameter: inhibition at 1 µM (%)

INSERT INTO results (compound, parameter, reported_measurement) VALUES
  ('Cc1ccc2c(c1)c1c(n2CC(O)c2ccc(C)nc2)CCN(C)CC1 (stereo not drawn)', 'inhibition at 1 µM', 42),
  ('CN1CCc2c(n(C#Cc3ccc(F)cc3)c3ccc(Cl)cc23)CC1', 'inhibition at 1 µM', 92),
  ('Cc1ccc2c(c1)c1c(n2CCc2ccncc2)CCN(C)CC1', 'inhibition at 1 µM', 93),
  ('Cc1ccc2c(c1)c1c(n2CC(=O)N2CCC(C)CC2)CCN(C)CC1', 'inhibition at 1 µM', 0),
  ('CN1CCc2c(n(CC(O)c3ccc(F)c(F)c3)c3ccc(Cl)cc23)CC1 (stereo not drawn)', 'inhibition at 1 µM', 95),
  ('CN1CCc2c(n(CCc3ccc(Cl)cc3)c3ccc(Cl)cc23)CC1', 'inhibition at 1 µM', 99),
  ('COc1ccc(/C=C/n2c3c(c4cc(C)ccc42)CCN(C)CC3)cc1F', 'inhibition at 1 µM', 99),
  ('Cc1ccc2c(c1)c1c(n2CCc2ccc(C(=O)O)nc2)CCN(C)CC1', 'inhibition at 1 µM', 1),
  ('CN1CCc2c(n(CC(=O)N3CCCC3)c3ccc(Cl)cc23)CC1', 'inhibition at 1 µM', 1),
  ('COc1ccc(C(O)Cn2c3c(c4cc(C)ccc42)CCN(C)CC3)c(F)c1 (stereo not drawn)', 'inhibition at 1 µM', 94),
  ('CN1CCc2c(n(CC(=O)N(C)C3CCCCC3)c3ccc(Cl)cc23)CC1', 'inhibition at 1 µM', 19),
  ('Cc1ccc2c(c1)c1c(n2CC(O)c2ccc(Cl)cc2)CCN(C)CC1 (stereo not drawn)', 'inhibition at 1 µM', 105),
  ('COc1ccc(/C=C/n2c3c(c4cc(Cl)ccc42)CCN(C)CC3)cc1', 'inhibition at 1 µM', 83),
  ('Cc1ccc(C(O)Cn2c3c(c4cc(C)ccc42)CCN(C)CC3)cc1 (stereo not drawn)', 'inhibition at 1 µM', 98),
  ('Cc1ccc2c(c1)c1c(n2CC(=O)NC(C)C)CCN(C)CC1', 'inhibition at 1 µM', 5),
  ('CC(C)NC(=O)Cn1c2c(c3cc(Cl)ccc31)CCN(C)CC2', 'inhibition at 1 µM', 31),
  ('Cc1ccc2c(c1)c1c(n2CC(C)(O)c2ccc(Cl)cc2)CCN(C)CC1 (stereo not drawn)', 'inhibition at 1 µM', 93),
  ('Cc1ccc2c(c1)c1c(n2CC(O)c2ccc(F)cc2F)CCN(C)CC1 (stereo not drawn)', 'inhibition at 1 µM', 89);
